System: souris femelles
Assay: acute toxicity in the mouse, intraperitoneal
Assay type: in vivo
Conditions: voie intrapéritonéale, 100 mg/kg; dead mice of the group
From the text: Les produits ont été administrés par voie intrapéritonéale à des souris femelles dont le poids variait de 18 à 30 g. Les animaux injectés ont été maintenus dans une salle thermostatée, nourris et abreuvés à volonté. La mortalité a été relevée à 1 heure, 4 heures, 24 heures et 48 heures.
Mortalité en 48 h. overview

As a guide, the following entries are already answered.
{"compound": "CN(C)CCN1c2ccccc2-c2onc(-c3ccccc3)c2-c2ccccc21", "Mortalité en 48 h.": 0}
{"compound": "CN(C)CCN1c2ccccc2C2ON=C(c3ccccc3)C2c2ccccc21 (stereo not drawn)", "Mortalité en 48 h.": 3}
{"compound": "CN(C)CCCN1c2ccccc2-c2c(-c3ccccc3)nn(-c3ccccc3)c2-c2ccccc21", "Mortalité en 48 h.": 0}
{"compound": "c1ccc(C2=NOC3c4ccccc4Nc4ccccc4C23)cc1 (stereo not drawn)", "Mortalité en 48 h.": 0}
{"compound": "CC(CN(C)C)CN1c2ccccc2C=Cc2ccccc21 (stereo not drawn) [compound 22, reference compound]", "Mortalité en 48 h.": 5}

Ask: Checklist item: Mortalité en 48 h. tested on souris femelles, entry `CN(C)CCN1c2ccccc2-c2c(-c3ccccc3)nn(-c3ccccc3)c2-c2ccccc21` , value?
Result: 0

Ask: Checklist item: Mortalité en 48 h. tested on souris femelles, entry CN(C)CCCN1c2ccccc2C2ON=C(c3ccccc3)C2c2ccccc21 (stereo not drawn) , value?
Result: 0

Ask: Checklist item: Mortalité en 48 h. tested on souris femelles, entry CN(C)CCCN1c2ccccc2C2C(c3ccccc3)=NN(c3ccccc3)C2c2ccccc21 (stereo not drawn) , value?
Result: 0

Ask: Checklist item: Mortalité en 48 h. tested on souris femelles, entry `c1ccc(-c2noc3c2-c2ccccc2Nc2ccccc2-3)cc1` , value?
Result: 0
